# assay.procedure: Clearance in male Sprague-Dawley rat at 20 mg/kg, po measured after 12 hrs by LC-MS/MS analysis
# Type: ADME, organism-based
# test.settings: in vivo
readout.type: CL/F
State the value, then name its unit.

response.value for CCCNNC(=O)c1ccc(Cn2c3ccccc3c3c(-c4ccccn4)nc4ccccc4c32)cc1 (field: CL/F) = 41.1 mL/min/kg

----------
Provide the recorded inhibition for the entries that follow.
# study.target: Histone deacetylase 1 (Homo sapiens)
# test.settings: dose 500.0 nM, time 3.0 hrs
Give bare numbers, in %.

See these solved cases before continuing.
compound_structure=CCCNNC(=O)c1ccc(Cn2c3ccccc3c3c(-c4cccc(Cl)c4)nc4ccccc4c32)cc1 readout_type=inhibition unit_of_measurement=% observed_result=25
compound_structure=CCCNNC(=O)c1ccc(Cn2c3ccccc3c3c(-c4cc(OC)ccc4O)nc4ccccc4c32)cc1 readout_type=inhibition unit_of_measurement=% observed_result=27
compound_structure=CCCCNNC(=O)c1ccc(Cn2c3ccccc3c3c(-c4ccccn4)nc4ccccc4c32)cc1 readout_type=inhibition unit_of_measurement=% observed_result=35
compound_structure=C/C=C/CNNC(=O)c1ccc(Cn2c3ccccc3c3c(-c4ccccn4)nc4ccccc4c32)cc1 readout_type=inhibition unit_of_measurement=% observed_result=39
compound_structure=CCCN(CCC)NC(=O)c1ccc(Cn2c3ccccc3c3c(-c4ccccn4)nc4ccccc4c32)cc1 readout_type=inhibition unit_of_measurement=% observed_result=23

Hey, can you go through the list below and give me inhibition for every item?
1. CCCCCNNC(=O)c1ccc(Cn2c3ccccc3c3c(-c4ccccn4)nc4ccccc4c32)cc1
2. CCCNNC(=O)c1ccc(Cn2c3ccccc3c3c(-c4ccc(OC)cc4)nc4ccccc4c32)cc1
3. CCCNNC(=O)c1ccc(Cn2c3ccccc3c3c(-c4cccc(F)c4)nc4ccccc4c32)cc1
4. CCCN(CCC)NC(=O)c1ccc(Cn2c3ccccc3c3c(-c4cccc(F)c4)nc4ccccc4c32)cc1
5. CCCNNC(=O)c1ccc(Cn2c3ccccc3c3c(-c4cccnc4)nc4ccccc4c32)cc1
6. CCCNNC(=O)c1ccc(Cn2c3ccccc3c3c(C4CCN(C(=O)OC(C)(C)C)CC4)nc4ccccc4c32)cc1
7. CCCNNC(=O)c1ccc(Cn2c3ccccc3c3c(-c4cc(Cl)ccc4O)nc4ccccc4c32)cc1

20
29
20
27
16
22
31

# batch: return inhibition for each of the 6 compounds below
1. CCCNNC(=O)c1ccc(Cn2c3ccccc3c3c(-c4ccccn4)nc4ccccc4c32)cc1
2. CCCNNC(=O)c1ccc(Cn2c3ccccc3c3c(-c4ccncc4)nc4ccccc4c32)cc1
3. CCNNC(=O)c1ccc(Cn2c3ccccc3c3c(-c4ccccn4)nc4ccccc4c32)cc1
4. CCCCCCCNNC(=O)c1ccc(Cn2c3ccccc3c3c(-c4ccccn4)nc4ccccc4c32)cc1
5. CCCNNC(=O)c1ccc(Cn2c3ccccc3c3c(-c4ccc(O)c(OC)c4)nc4ccccc4c32)cc1
6. Nc1ccccc1NC(=O)c1ccc(CNC(=O)OCc2cccnc2)cc1

1. 14
2. 12
3. 11
4. 22
5. 20
6. 88

----------
# study.target: Histone deacetylase 1 (Homo sapiens, UniProt Q13547)
# Sequence (Q13547 whole entry): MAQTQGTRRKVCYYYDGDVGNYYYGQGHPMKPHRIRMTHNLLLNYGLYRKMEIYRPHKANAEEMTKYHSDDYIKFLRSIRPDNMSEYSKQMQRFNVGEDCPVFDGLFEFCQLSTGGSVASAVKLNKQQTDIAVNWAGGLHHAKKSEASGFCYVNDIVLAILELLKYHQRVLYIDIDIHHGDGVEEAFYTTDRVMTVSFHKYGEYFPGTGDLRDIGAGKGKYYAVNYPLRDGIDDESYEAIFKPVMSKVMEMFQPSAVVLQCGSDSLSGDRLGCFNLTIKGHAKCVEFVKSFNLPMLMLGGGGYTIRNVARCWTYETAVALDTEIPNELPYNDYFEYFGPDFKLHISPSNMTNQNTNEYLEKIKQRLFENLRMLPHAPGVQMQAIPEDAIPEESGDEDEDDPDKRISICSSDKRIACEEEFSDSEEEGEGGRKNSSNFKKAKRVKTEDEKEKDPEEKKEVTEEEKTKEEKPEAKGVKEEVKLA
# assay.procedure: Inhibition of recombinant HDAC1 (unknown origin) using Boc-Lys(acetyl)-AMC as substrate preincubated for 1 hr followed by substrate addition and measured after 2 hrs by fluorescence based micro plate reader analysis
readout.type: pIC50
Answers are plain numbers, as −log10 of the molar value.

The reported pIC50 of the compound CCCNNC(=O)c1ccc(Cn2c3ccccc3c3c(-c4ccccn4)nc4ccccc4c32)cc1 was 5.17

----------
# assay.procedure: Cmax in male Sprague-Dawley rat at 2 mg/kg, iv measured after 12 hrs by LC-MS/MS analysis
# Format: ADME, organism-based
# test.settings: in vivo
readout.type: Cmax (ng/mL)
Answers are plain numbers, in ng/mL.

The molecule CCCNNC(=O)c1ccc(Cn2c3ccccc3c3c(-c4ccccn4)nc4ccccc4c32)cc1 showed Cmax equal to 1040

----------
# assay.procedure: Tmax in male Sprague-Dawley rat at 20 mg/kg, po measured after 12 hrs by LC-MS/MS analysis
# Type: ADME, organism-based
# test.settings: in vivo
readout.type: Tmax (min)
One number for each entry, in min.

Recorded result, CCCNNC(=O)c1ccc(Cn2c3ccccc3c3c(-c4ccccn4)nc4ccccc4c32)cc1 , Tmax: 30

----------
# assay.procedure: Cmax in male Sprague-Dawley rat at 20 mg/kg, po measured after 12 hrs by LC-MS/MS analysis
# Type: ADME, organism-based
# test.settings: in vivo
readout.type: Cmax (ng/mL)
Numbers only, in ng/mL.

The compound identified as CCCNNC(=O)c1ccc(Cn2c3ccccc3c3c(-c4ccccn4)nc4ccccc4c32)cc1 registered its Cmax at 1390

----------
# study.target: Histone deacetylase 4 (Homo sapiens)
# Sequence (P56524 whole entry): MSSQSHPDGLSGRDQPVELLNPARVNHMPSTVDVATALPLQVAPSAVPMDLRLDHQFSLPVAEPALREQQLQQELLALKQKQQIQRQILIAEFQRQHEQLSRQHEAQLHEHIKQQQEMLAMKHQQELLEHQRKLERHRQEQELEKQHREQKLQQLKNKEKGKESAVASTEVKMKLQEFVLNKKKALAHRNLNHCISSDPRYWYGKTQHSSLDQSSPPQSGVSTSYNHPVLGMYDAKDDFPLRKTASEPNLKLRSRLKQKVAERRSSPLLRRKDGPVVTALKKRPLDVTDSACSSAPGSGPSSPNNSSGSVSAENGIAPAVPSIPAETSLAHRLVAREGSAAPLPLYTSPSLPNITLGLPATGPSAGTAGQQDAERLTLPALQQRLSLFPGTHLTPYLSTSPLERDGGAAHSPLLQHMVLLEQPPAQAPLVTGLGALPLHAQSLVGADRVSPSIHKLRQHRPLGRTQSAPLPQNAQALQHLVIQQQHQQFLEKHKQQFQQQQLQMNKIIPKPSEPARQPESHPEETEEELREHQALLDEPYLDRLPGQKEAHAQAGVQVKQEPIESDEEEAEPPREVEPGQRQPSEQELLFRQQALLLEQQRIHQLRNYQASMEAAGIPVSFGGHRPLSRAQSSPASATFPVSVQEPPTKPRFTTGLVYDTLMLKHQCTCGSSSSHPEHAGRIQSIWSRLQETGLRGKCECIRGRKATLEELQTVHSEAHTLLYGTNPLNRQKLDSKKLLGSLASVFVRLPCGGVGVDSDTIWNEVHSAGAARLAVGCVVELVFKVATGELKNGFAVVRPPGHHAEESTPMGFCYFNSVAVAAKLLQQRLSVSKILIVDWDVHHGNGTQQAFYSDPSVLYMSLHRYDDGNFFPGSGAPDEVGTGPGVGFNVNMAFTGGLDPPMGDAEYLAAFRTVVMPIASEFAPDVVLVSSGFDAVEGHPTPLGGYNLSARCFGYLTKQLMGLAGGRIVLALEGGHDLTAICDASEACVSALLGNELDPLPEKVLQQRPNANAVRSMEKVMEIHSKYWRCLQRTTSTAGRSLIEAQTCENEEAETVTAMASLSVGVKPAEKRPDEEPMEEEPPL
# assay.procedure: Inhibition of recombinant HDAC4 (unknown origin) using Boc-Lys(trifluoroacetyl)-AMC as substrate preincubated for 1 hr followed by substrate addition and measured after 2 hrs by fluorescence based micro plate reader analysis
readout.type: IC50

GET /value?item= CCCNNC(=O)c1ccc(Cn2c3ccccc3c3c(-c4ccccn4)nc4ccccc4c32)cc1 &field=IC50 returns > 10 µM

----------
# assay.procedure: Clast in male Sprague-Dawley rat at 20 mg/kg, po measured after 12 hrs by LC-MS/MS analysis
# Assay type: ADME, organism-based
# test.settings: in vivo, read-out: Clast
readout.type: concentration at 12 h (ng/mL)
Numbers only, in ng/mL.

Per the records, this molecule ( CCCNNC(=O)c1ccc(Cn2c3ccccc3c3c(-c4ccccn4)nc4ccccc4c32)cc1 ) has concentration at 12 h equal to 106

----------
# assay.procedure: Half-life in male Sprague-Dawley rat at 2 mg/kg, iv measured after 12 hrs by LC-MS/MS analysis
# Format: ADME, organism-based
# test.settings: in vivo
readout.type: half-life (min)
One number for each entry, in min.

The value of half-life measured for the compound CCCNNC(=O)c1ccc(Cn2c3ccccc3c3c(-c4ccccn4)nc4ccccc4c32)cc1 turned out to be 37.8

----------
For each record, write down the corresponding pIC50.
# System: HCT-116
# assay.procedure: cells
# Type: functional, cell-based
# test.settings: Homo sapiens, HCT-116, 72 h
# Description: Antiproliferative activity against human HCT-116 cells assessed as inhibition of cell growth incubated for 72 hrs by MTT assay
One number for each entry, as −log10 of the molar value.

compound_structure=Nc1ccccc1NC(=O)c1ccc(CNC(=O)OCc2cccnc2)cc1 readout_type=pIC50 observed_result=5.78

We next turn to a different compound, shown below.
Observed pIC50 on HCT-116, entry CCCNNC(=O)c1ccc(Cn2c3ccccc3c3c(-c4ccccn4)nc4ccccc4c32)cc1 , equals 5.17

----------
# study.target: Histone deacetylase 3 (Homo sapiens)
# test.settings: dose 500.0 nM, time 3.0 hrs
Exercise: state measured inhibition for each of the molecules provided.

Some molecules with known inhibition results, for comparison:
compound_structure=CCCNNC(=O)c1ccc(Cn2c3ccccc3c3c(-c4ccc(O)c(OC)c4)nc4ccccc4c32)cc1 study_target="Histone deacetylase 3 (Homo sapiens)" readout_type=inhibition observed_result=79%
compound_structure=CCCCCNNC(=O)c1ccc(Cn2c3ccccc3c3c(-c4ccccn4)nc4ccccc4c32)cc1 study_target="Histone deacetylase 3 (Homo sapiens)" readout_type=inhibition observed_result=82%
compound_structure=CCCCCCCNNC(=O)c1ccc(Cn2c3ccccc3c3c(-c4ccccn4)nc4ccccc4c32)cc1 study_target="Histone deacetylase 3 (Homo sapiens)" readout_type=inhibition observed_result=53%
compound_structure=O=C(CCCCCCC(=O)Nc1ccccc1)NO study_target="Histone deacetylase 3 (Homo sapiens)" readout_type=inhibition observed_result=77%
compound_structure=CCCCCCCCNNC(=O)c1ccc(Cn2c3ccccc3c3c(-c4ccccn4)nc4ccccc4c32)cc1 study_target="Histone deacetylase 3 (Homo sapiens)" readout_type=inhibition observed_result=40%
compound_structure=CCCNNC(=O)c1ccc(Cn2c3ccccc3c3c(-c4ccccc4)nc4ccccc4c32)cc1 study_target="Histone deacetylase 3 (Homo sapiens)" readout_type=inhibition observed_result=57%

For each listed entry, give its inhibition.
1. CC(C)NNC(=O)c1ccc(Cn2c3ccccc3c3c(-c4ccccn4)nc4ccccc4c32)cc1
2. CCCNNC(=O)c1ccc(Cn2c3ccccc3c3c(-c4cccc(Cl)c4)nc4ccccc4c32)cc1
3. CCCCCCCCCNNC(=O)c1ccc(Cn2c3ccccc3c3c(-c4ccccn4)nc4ccccc4c32)cc1

< 10%
73%
29%

----------
# assay.procedure: MRT (0 to infinity) in male Sprague-Dawley rat at 2 mg/kg, iv measured after 12 hrs by LC-MS/MS analysis
# Assay type: ADME, organism-based
# test.settings: in vivo
readout.type: MRT inf (min)
One number for each entry, in min.

MRT inf measured on CCCNNC(=O)c1ccc(Cn2c3ccccc3c3c(-c4ccccn4)nc4ccccc4c32)cc1 = 44.5

----------
# study.target: Histone deacetylase 3 (Homo sapiens, UniProt O15379);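 note: recombinant HDAC3 enzyme with Boc-Lys(acetyl)-AMC substrate, fluorescence readout, compound preincubated 1 hr before a 2 hr reaction, inhibition expressed relative to control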
# Sequence (O15379 whole entry): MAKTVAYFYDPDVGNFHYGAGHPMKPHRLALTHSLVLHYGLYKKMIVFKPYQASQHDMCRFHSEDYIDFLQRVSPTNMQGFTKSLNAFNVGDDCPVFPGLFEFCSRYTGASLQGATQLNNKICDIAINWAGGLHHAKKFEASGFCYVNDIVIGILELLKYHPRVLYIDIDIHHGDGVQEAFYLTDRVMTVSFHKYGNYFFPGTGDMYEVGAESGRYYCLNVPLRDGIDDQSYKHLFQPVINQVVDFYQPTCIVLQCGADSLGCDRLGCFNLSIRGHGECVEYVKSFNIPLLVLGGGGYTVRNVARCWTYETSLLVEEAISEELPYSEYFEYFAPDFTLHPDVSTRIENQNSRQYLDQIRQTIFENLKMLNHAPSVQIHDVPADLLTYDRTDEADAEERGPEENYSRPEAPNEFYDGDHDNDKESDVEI
# test.settings: dose 500.0 nM, time 3.0 hrs
Label fulfilled when inhibition is at or above 60%; anything below gets not fulfilled.

compound_structure=CCCNNC(=O)c1ccc(Cn2c3ccccc3c3c(-c4ccc(OC)cc4)nc4ccccc4c32)cc1 assigned_class="not fulfilled"
compound_structure=CCCNNC(=O)c1ccc(Cn2c3ccccc3c3c(-c4ccncc4)nc4ccccc4c32)cc1 assigned_class=fulfilled
compound_structure=CCCNNC(=O)c1ccc(Cn2c3ccccc3c3c(-c4cccnc4)nc4ccccc4c32)cc1 assigned_class=fulfilled
compound_structure=CCCN(CCC)NC(=O)c1ccc(Cn2c3ccccc3c3c(C4CCN(C(=O)OC(C)(C)C)CC4)nc4ccccc4c32)cc1 assigned_class="not fulfilled"

Does inhibition meet or surpass 60% for CCCCNNC(=O)c1ccc(Cn2c3ccccc3c3c(-c4ccccn4)nc4ccccc4c32)cc1 ?
fulfilled

Does CCCCCCCCCCNNC(=O)c1ccc(Cn2c3ccccc3c3c(-c4ccccn4)nc4ccccc4c32)cc1 have a reported inhibition of at least 60%?
not fulfilled

Does the compound CCCNNC(=O)c1ccc(Cn2c3ccccc3c3c(-c4cc(OC)ccc4O)nc4ccccc4c32)cc1 have recorded inhibition that is 60% or more?
fulfilled

Form field: inhibition at least 60%? Entry: CCCN(CCC)NC(=O)c1ccc(Cn2c3ccccc3c3c(-c4cccc(F)c4)nc4ccccc4c32)cc1
not fulfilled

Source: ChEMBL document CHEMBL6096732
